# Tested on: Vγ2Vδ2 T cells
# ASSAY_PROCEDURE: gammadelta T cell stimulation (TNF-α release assay)
# Type: cell-based, human
# EXPERIMENTAL_CONDITIONS: Table 4; read-out: (3) gammadelta T cell stimulation EC50
# EC50 values compiled below
Write the number in µM without appending the unit.

Some compounds with known EC50 results, for comparison:
COMPOUND: CP(=O)([O-])C(C[n+]1cccc(-c2ccccc2)c1)P(C)(=O)O (stereo not drawn)
EC50 (µM): 2300
--
COMPOUND: CCCOc1cccc(-c2ccc[n+](CC(P(=O)([O-])O)P(=O)(O)O)c2)c1 (stereo not drawn)
EC50 (µM): 21
--
COMPOUND: CCOc1cccc(-c2ccc[n+](CC(P(=O)([O-])O)P(=O)(O)O)c2)c1 (stereo not drawn)
EC50 (µM): 120
--
COMPOUND: Cc1cccc(Cc2ccc[n+](CC(O)(P(=O)([O-])O)P(=O)(O)O)c2)c1 (stereo not drawn)
EC50 (µM): 140
--
COMPOUND: O=P([O-])(O)C(O)(C[n+]1ccc2ccccc2c1)P(=O)(O)O (stereo not drawn)
EC50 (µM): 41
--
COMPOUND: COc1cc[n+](CC(O)(P(=O)([O-])O)P(=O)(O)O)cc1 (stereo not drawn)
EC50 (µM): 19

Now look at this entry.
[Q] Enter EC50 (test system Vγ2Vδ2 T cells) for O=P([O-])(O)C(C[n+]1cccc(-c2ccc(F)c(F)c2)c1)P(=O)(O)O (stereo not drawn)
[A] 19
